test: Cytotoxicity against human HeLa cells; assay type: toxicity, cell-based
OBSERVABLE: IC50

// query Input CCOC(=O)c1cc2c(Br)cc(Br)c(O)c2nc1C , output reported IC50.
// result > 100 µM

###

experiment: Inhibition of Mycobacterium tuberculosis MetAP1a
OBSERVABLE: IC50 (µM)
Provide only the numeric value, understood in µM.

// query In one line, give reported IC50 of the entry Oc1c(Br)cc(Cl)c2cccnc12 .
// result 5.44

// query Fill in reported IC50 for this entry: CC(=O)Oc1c(Cl)cc(Cl)c2cccnc12
// result 4.87

// query Provide one value: measured IC50 of Oc1c(I)cc(Cl)c2cccnc12
// result 9.25

// query Give IC50 for Clc1cc2c(c3ncccc13)OCN(C1CCCCC1)C2
// result 4.3

###

experiment: Inhibition of Mycobacterium tuberculosis FBA
OBSERVABLE: pIC50
Here pIC50 is given on a logarithmic scale as minus log10 of the concentration in mol/L.

// query Complete the entry with pIC50 for O=C(O)c1ccc2cccc(O)c2n1
// result 5.00

###

assay: Inhibition of Aeromonas proteolytica aminopeptidase; design: species or system Vibrio proteolyticus
OBSERVABLE: pKi
Please note pKi is a logarithmic value: minus log10 of concentration in mol/L. Answer with that number alone.

// query Hello, please tell me recorded pKi for this one: Oc1ccc(Cl)c2cccnc12
// result 6.80

// query Please list pKi recorded for the compound Oc1cccc2cccnc12
// result 6.24

// query Give the reported pKi for this compound. Oc1ccc(C(F)(F)F)c2cccnc12
// result 6.43

###

assay: Inhibition of human zinc metalloprotease
OBSERVABLE: IC50

// query Entry O=C(NOCc1ccccc1)c1ccc2cccc(O)c2n1 needs its IC50 filled in; supply it.
// result ≥ 1000 nM

###

OBSERVABLE: IC50 (µM)
Give the quantity in µM, number only.

// query Provide IC50, tested on Botulinum neurotoxin type F (Clostridium botulinum, UniProt P30996), for O=C(O)c1ccc(NC(c2ccccc2)c2ccc3cccnc3c2O)cc1 (configuration not stated) .
Sequence (P30996 1-436 limits assumed): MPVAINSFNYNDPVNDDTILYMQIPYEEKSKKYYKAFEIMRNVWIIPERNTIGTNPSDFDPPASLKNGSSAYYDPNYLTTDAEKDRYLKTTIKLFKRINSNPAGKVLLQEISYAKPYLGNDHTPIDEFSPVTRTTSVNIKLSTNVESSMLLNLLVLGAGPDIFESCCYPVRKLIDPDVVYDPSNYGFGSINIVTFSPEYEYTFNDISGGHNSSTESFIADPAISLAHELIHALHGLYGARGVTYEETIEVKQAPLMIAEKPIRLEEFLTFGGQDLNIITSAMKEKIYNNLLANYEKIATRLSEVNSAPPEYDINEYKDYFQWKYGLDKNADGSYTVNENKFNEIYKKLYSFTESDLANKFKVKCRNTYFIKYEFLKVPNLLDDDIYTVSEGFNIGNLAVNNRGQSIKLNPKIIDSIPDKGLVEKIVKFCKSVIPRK
// result 30.5

// query Look up Botulinum neurotoxin type F (Clostridium botulinum, UniProt P30996) data: IC50 of Cc1ccnc(NC(c2ccccc2)c2ccc3cccnc3c2O)c1 (configuration not stated) , then report it.
// result 14.9

###

Please consider the recorded pIC50 for Methionine aminopeptidase 1 (Homo sapiens) in what follows.
Just the number, please; pIC50 means minus log10 of the concentration in mol/L.

// query Using known records, supply pIC50 for Oc1c(Br)cc(Cl)c2cccnc12
// result 3.98

// query Determine its reported pIC50: Oc1c(I)cc(Cl)c2cccnc12
// result 4.07
